Source: ChEMBL document CHEMBL3393000

# target.entity: Telomerase reverse transcriptase (Homo sapiens) (UniProt O14746)
# Sequence (O14746 whole entry): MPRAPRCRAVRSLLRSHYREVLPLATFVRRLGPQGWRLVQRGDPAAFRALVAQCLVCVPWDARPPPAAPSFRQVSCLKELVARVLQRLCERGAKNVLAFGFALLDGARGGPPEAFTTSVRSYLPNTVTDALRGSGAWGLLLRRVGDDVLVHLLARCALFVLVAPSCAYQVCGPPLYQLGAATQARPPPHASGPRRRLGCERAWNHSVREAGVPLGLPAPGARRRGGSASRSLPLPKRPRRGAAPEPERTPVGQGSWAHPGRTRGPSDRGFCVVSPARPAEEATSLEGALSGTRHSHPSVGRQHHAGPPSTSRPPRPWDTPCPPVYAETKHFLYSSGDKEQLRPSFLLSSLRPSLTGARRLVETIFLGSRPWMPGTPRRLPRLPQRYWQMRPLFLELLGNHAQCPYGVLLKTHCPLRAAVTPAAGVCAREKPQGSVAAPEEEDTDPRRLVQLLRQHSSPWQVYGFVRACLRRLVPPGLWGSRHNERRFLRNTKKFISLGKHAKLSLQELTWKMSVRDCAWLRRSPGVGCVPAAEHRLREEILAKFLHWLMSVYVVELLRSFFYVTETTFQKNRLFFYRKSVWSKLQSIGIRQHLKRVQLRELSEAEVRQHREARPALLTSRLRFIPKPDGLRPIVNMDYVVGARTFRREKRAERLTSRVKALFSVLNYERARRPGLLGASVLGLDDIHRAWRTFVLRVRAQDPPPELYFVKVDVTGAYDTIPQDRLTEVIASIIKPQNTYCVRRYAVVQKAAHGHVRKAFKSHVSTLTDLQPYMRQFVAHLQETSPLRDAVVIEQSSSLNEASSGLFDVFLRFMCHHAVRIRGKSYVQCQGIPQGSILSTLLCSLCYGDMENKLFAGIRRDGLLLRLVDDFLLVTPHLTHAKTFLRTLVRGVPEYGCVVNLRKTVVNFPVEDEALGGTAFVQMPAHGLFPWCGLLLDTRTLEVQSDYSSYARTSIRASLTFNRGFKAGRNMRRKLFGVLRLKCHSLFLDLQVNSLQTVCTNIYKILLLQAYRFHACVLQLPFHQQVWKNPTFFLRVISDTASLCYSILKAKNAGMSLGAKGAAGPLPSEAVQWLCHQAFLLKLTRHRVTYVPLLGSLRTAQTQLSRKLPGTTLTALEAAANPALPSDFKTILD
# test: Inhibition of telomerase in human HepG2 cells at 1 uM after 3 days by TRAP-ELISA method
# Format: cell-based
measure.name: inhibition (%)
Response body: numeric value in %, unit text excluded.

// below: answered compounds
| compound | inhibition, % |
| --- | --- |
| COc1ccc2ccc(=O)oc2c1C1=NNC(c2ccc(SC)cc2)C1 (stereo unspecified) | 30.1 |
| COc1ccc2ccc(=O)oc2c1C1=NN(C(N)=O)C(c2ccc(SC)cc2)C1 (stereo unspecified) | 23.6 |

Need inhibition, item COc1ccc2ccc(=O)oc2c1C1=NNC(c2cccs2)C1 (stereo unspecified)
28.9

Can you handle COc1ccc2ccc(=O)oc2c1C1=NNC(c2ccc(C(F)(F)F)cc2)C1 (stereo unspecified) next?
27.2

Can you handle CN[C@@H]1C[C@H]2O[C@@](C)([C@@H]1OC)n1c3ccccc3c3c4c(c5c6ccccc6n2c5c31)C(=O)NC4 next?
15.4

Can you handle COc1ccc2ccc(=O)oc2c1C1=NN(c2ccccc2)C(c2cccs2)C1 (stereo unspecified) next?
26.1

###

# target.entity: Telomerase reverse transcriptase (Homo sapiens) (UniProt O14746)
# test: Inhibition of telomerase in human HepG2 cells at 2 uM after 2 days by TRAP-ELISA method
# Assay type: cell-based
measure.name: inhibition (%)
Response body: numeric value in %, unit text excluded.

Need inhibition, item COc1ccc2ccc(=O)oc2c1C1=NNC(c2ccc(SC)cc2)C1 (stereo unspecified)
34.5

Can you handle COc1ccc2ccc(=O)oc2c1C1=NN(C(N)=O)C(c2ccc(SC)cc2)C1 (stereo unspecified) next?
27.1

Can you handle COc1ccc2ccc(=O)oc2c1C1=NNC(c2ccc(C(F)(F)F)cc2)C1 (stereo unspecified) next?
31.2

Can you handle CN[C@@H]1C[C@H]2O[C@@](C)([C@@H]1OC)n1c3ccccc3c3c4c(c5c6ccccc6n2c5c31)C(=O)NC4 next?
18.9

Can you handle COc1ccc2ccc(=O)oc2c1C1=NN(c2ccccc2)C(c2cccs2)C1 (stereo unspecified) next?
30

Can you handle COc1ccc2ccc(=O)oc2c1C1=NNC(c2cccs2)C1 (stereo unspecified) next?
33.1

###

# target.entity: Telomerase reverse transcriptase (Homo sapiens) (UniProt O14746)
# test: Inhibition of telomerase in human HepG2 cells at 1 uM after 2 days by TRAP-ELISA method
# Type: cell-based
Entries annotated with measured inhibition
Response body: numeric value in %, unit text excluded.

// below: answered molecules
| molecule | target.entity | units | quantitative.result |
| --- | --- | --- | --- |
| COc1ccc2ccc(=O)oc2c1C1=NNC(c2ccc(C(F)(F)F)cc2)C1 (stereo unspecified) | Telomerase reverse transcriptase (Homo sapiens) (UniProt O14746) | % | 20.2 |
| COc1ccc2ccc(=O)oc2c1C1=NN(C(N)=O)C(c2ccc(SC)cc2)C1 (stereo unspecified) | Telomerase reverse transcriptase (Homo sapiens) (UniProt O14746) | % | 17.6 |
| COc1ccc2ccc(=O)oc2c1C1=NN(c2ccccc2)C(c2cccs2)C1 (stereo unspecified) | Telomerase reverse transcriptase (Homo sapiens) (UniProt O14746) | % | 19.4 |
| COc1ccc2ccc(=O)oc2c1C1=NNC(c2cccs2)C1 (stereo unspecified) | Telomerase reverse transcriptase (Homo sapiens) (UniProt O14746) | % | 21.5 |
| COc1ccc2ccc(=O)oc2c1C1=NNC(c2ccc(SC)cc2)C1 (stereo unspecified) | Telomerase reverse transcriptase (Homo sapiens) (UniProt O14746) | % | 22.4 |

Next item in the queue.
Need inhibition, item CN[C@@H]1C[C@H]2O[C@@](C)([C@@H]1OC)n1c3ccccc3c3c4c(c5c6ccccc6n2c5c31)C(=O)NC4
11.3
